# Test system: arterial blood pressure and dp/dt max. (left ventricle)
# experimental-details: Cardiotonic and blood pressure effects in anesthetized cats
# Assay type: in vivo, cat
# measurement-conditions: 2 mg/kg intravenously, second of two values
Counter-ions that a name gives are not always drawn.
Entries annotated with measured Change in blood pressure (second value of the pair printed with a slash)
Use mm Hg as the unit, but write only the number.

Answered examples (3):
{"compound": "CC1(C)C(=O)NC(=O)c2c1ccc1nc(C3CC3)[nH]c21 [M, hydrochloride]", "observed-result": -49}
{"compound": "COc1cc(S(C)(=O)=O)ccc1-c1nc2ccc3c(c2[nH]1)C(=O)NC(=O)C3(C)C", "observed-result": -80}
{"compound": "COc1ccc([S+](C)[O-])cc1-c1nc2ccc3c(c2[nH]1)C(=O)NC(=O)C3(C)C (stereo not shown) [L, hydrochloride]", "observed-result": -53}

Reported Change in blood pressure (second value of the pair printed with a slash), compound `CSc1ccc(-c2nc3ccc4c(c3[nH]2)C(=O)NC(=O)C4(C)C)cc1` : ____
-45

Reported Change in blood pressure (second value of the pair printed with a slash), compound COc1ccc(-c2nc3ccc4c(c3[nH]2)C(=O)NC(=O)C4(C)C)c(OC)c1 [A, hydrochloride] : ____
-48
